These measurements were taken from the NIST ThermoML archive (doi:10.1021/acs.jced.7b00458).

settings: 336.15 K; 100 kPa; Liquid; Concentric cylinders viscometry
Numbers after ± are expanded uncertainties.
observable: viscosity
The answer should read as a number with its unit following.

Incoming: Quick one: viscosity for `CCCC[N+]1(C)CCCC1.O=S(=O)([N-]S(=O)(=O)C(F)(F)F)C(F)(F)F` ?
Outgoing: 19.91 ± 0.14 mPa·s

Incoming: Quick one: viscosity for `CCCC[N+]1(C)CCCCC1.O=S(=O)([N-]S(=O)(=O)C(F)(F)F)C(F)(F)F` ?
Outgoing: 33.12 ± 0.23 mPa·s

Incoming: Quick one: viscosity for `CCCCC[P+](CC)(CC)CC.O=S(=O)([N-]S(=O)(=O)C(F)(F)F)C(F)(F)F` ?
Outgoing: 19.46 ± 0.14 mPa·s

Incoming: Quick one: viscosity for `CC[P+](CC)(CC)CCOC.O=S(=O)([N-]S(=O)(=O)C(F)(F)F)C(F)(F)F` ?
Outgoing: 13.62 ± 0.1 mPa·s

====

conditions: 312.15 K; 100 kPa; Liquid; Vibrating tube method
For each record, write down the corresponding mass density.
Record the value in kg/m3, omitting the unit from your answer.

Incoming: Quick one: mass density for `CCCC[N+]1(C)CCCCC1.O=S(=O)([N-]S(=O)(=O)C(F)(F)F)C(F)(F)F` ?
Outgoing: 1370

Incoming: Quick one: mass density for `CCCC[N+]1(C)CCCC1.O=S(=O)([N-]S(=O)(=O)C(F)(F)F)C(F)(F)F` ?
Outgoing: 1382

Incoming: Quick one: mass density for `CC[P+](CC)(CC)CCOC.O=S(=O)([N-]S(=O)(=O)C(F)(F)F)C(F)(F)F` ?
Outgoing: 1365

Incoming: Quick one: mass density for `CCCCC[P+](CC)(CC)CC.O=S(=O)([N-]S(=O)(=O)C(F)(F)F)C(F)(F)F` ?
Outgoing: 1292

====

conditions: 318.15 K; 100 kPa; Liquid; Concentric cylinders viscometry
For each record, write down the corresponding viscosity.
Record the value in mPa·s, omitting the unit from your answer.

Incoming: Quick one: viscosity for `CCCC[N+]1(C)CCCC1.O=S(=O)([N-]S(=O)(=O)C(F)(F)F)C(F)(F)F` ?
Outgoing: 34.92

Incoming: Quick one: viscosity for `CC[P+](CC)(CC)CCOC.O=S(=O)([N-]S(=O)(=O)C(F)(F)F)C(F)(F)F` ?
Outgoing: 22.97

Incoming: Quick one: viscosity for `CCCCC[P+](CC)(CC)CC.O=S(=O)([N-]S(=O)(=O)C(F)(F)F)C(F)(F)F` ?
Outgoing: 35.82

Incoming: Quick one: viscosity for `CCCC[N+]1(C)CCCCC1.O=S(=O)([N-]S(=O)(=O)C(F)(F)F)C(F)(F)F` ?
Outgoing: 67.13

====

conditions: 312.15 K; 100 kPa; Liquid; Alternating current cell with electrodes
observable: electrical conductivity (S/m)
Record the value in S/m, omitting the unit from your answer.

Incoming: Quick one: electrical conductivity for `CCCCC[P+](CC)(CC)CC.O=S(=O)([N-]S(=O)(=O)C(F)(F)F)C(F)(F)F` ?
Outgoing: 0.358

Incoming: Quick one: electrical conductivity for `CC[P+](CC)(CC)CCOC.O=S(=O)([N-]S(=O)(=O)C(F)(F)F)C(F)(F)F` ?
Outgoing: 0.608

Incoming: Quick one: electrical conductivity for `CCCC[N+]1(C)CCCC1.O=S(=O)([N-]S(=O)(=O)C(F)(F)F)C(F)(F)F` ?
Outgoing: 0.638

Incoming: Quick one: electrical conductivity for `CCCC[N+]1(C)CCCCC1.O=S(=O)([N-]S(=O)(=O)C(F)(F)F)C(F)(F)F` ?
Outgoing: 0.264

====

conditions: 324.15 K; 100 kPa; Liquid; Concentric cylinders viscometry
observable: viscosity (mPa·s)
Record the value in mPa·s, omitting the unit from your answer.

Incoming: Quick one: viscosity for `CCCC[N+]1(C)CCCCC1.O=S(=O)([N-]S(=O)(=O)C(F)(F)F)C(F)(F)F` ?
Outgoing: 52.01

Incoming: Quick one: viscosity for `CCCC[N+]1(C)CCCC1.O=S(=O)([N-]S(=O)(=O)C(F)(F)F)C(F)(F)F` ?
Outgoing: 28.56

Incoming: Quick one: viscosity for `CCCCC[P+](CC)(CC)CC.O=S(=O)([N-]S(=O)(=O)C(F)(F)F)C(F)(F)F` ?
Outgoing: 28.79

Incoming: Quick one: viscosity for `CC[P+](CC)(CC)CCOC.O=S(=O)([N-]S(=O)(=O)C(F)(F)F)C(F)(F)F` ?
Outgoing: 19.04

====

conditions: 336.15 K; 100 kPa; Liquid; Alternating current cell with electrodes
For each record, write down the corresponding electrical conductivity.

Incoming: Quick one: electrical conductivity for `CCCC[N+]1(C)CCCC1.O=S(=O)([N-]S(=O)(=O)C(F)(F)F)C(F)(F)F` ?
Outgoing: 1.26 S/m

Incoming: Quick one: electrical conductivity for `CCCCC[P+](CC)(CC)CC.O=S(=O)([N-]S(=O)(=O)C(F)(F)F)C(F)(F)F` ?
Outgoing: 0.711 S/m

Incoming: Quick one: electrical conductivity for `CCCC[N+]1(C)CCCCC1.O=S(=O)([N-]S(=O)(=O)C(F)(F)F)C(F)(F)F` ?
Outgoing: 0.626 S/m

Incoming: Quick one: electrical conductivity for `CC[P+](CC)(CC)CCOC.O=S(=O)([N-]S(=O)(=O)C(F)(F)F)C(F)(F)F` ?
Outgoing: 1.13 S/m

====

details: 306.15 K; 100 kPa; Liquid; Concentric cylinders viscometry
For each record, write down the corresponding viscosity.
Record the value in mPa·s, omitting the unit from your answer.

Incoming: Quick one: viscosity for `CCCC[N+]1(C)CCCC1.O=S(=O)([N-]S(=O)(=O)C(F)(F)F)C(F)(F)F` ?
Outgoing: 54.97

Incoming: Quick one: viscosity for `CC[P+](CC)(CC)CCOC.O=S(=O)([N-]S(=O)(=O)C(F)(F)F)C(F)(F)F` ?
Outgoing: 34.95

Incoming: Quick one: viscosity for `CCCCC[P+](CC)(CC)CC.O=S(=O)([N-]S(=O)(=O)C(F)(F)F)C(F)(F)F` ?
Outgoing: 58.68

Incoming: Quick one: viscosity for `CCCC[N+]1(C)CCCCC1.O=S(=O)([N-]S(=O)(=O)C(F)(F)F)C(F)(F)F` ?
Outgoing: 120.2

====

details: 336.15 K; 100 kPa; Liquid; Vibrating tube method
± gives the expanded uncertainty stated by the source.
observable: mass density
The answer should read as a number with its unit following.

Incoming: Quick one: mass density for `CCCCC[P+](CC)(CC)CC.O=S(=O)([N-]S(=O)(=O)C(F)(F)F)C(F)(F)F` ?
Outgoing: 1272 ± 1 kg/m3

Incoming: Quick one: mass density for `CCCC[N+]1(C)CCCCC1.O=S(=O)([N-]S(=O)(=O)C(F)(F)F)C(F)(F)F` ?
Outgoing: 1349 ± 1 kg/m3

Incoming: Quick one: mass density for `CC[P+](CC)(CC)CCOC.O=S(=O)([N-]S(=O)(=O)C(F)(F)F)C(F)(F)F` ?
Outgoing: 1344 ± 1 kg/m3

Incoming: Quick one: mass density for `CCCC[N+]1(C)CCCC1.O=S(=O)([N-]S(=O)(=O)C(F)(F)F)C(F)(F)F` ?
Outgoing: 1361 ± 1 kg/m3

====

conditions: 306.15 K; 100 kPa; Liquid; Alternating current cell with electrodes
observable: electrical conductivity (S/m)
Record the value in S/m, omitting the unit from your answer.

Incoming: Quick one: electrical conductivity for `CC[P+](CC)(CC)CCOC.O=S(=O)([N-]S(=O)(=O)C(F)(F)F)C(F)(F)F` ?
Outgoing: 0.498

Incoming: Quick one: electrical conductivity for `CCCC[N+]1(C)CCCCC1.O=S(=O)([N-]S(=O)(=O)C(F)(F)F)C(F)(F)F` ?
Outgoing: 0.202

Incoming: Quick one: electrical conductivity for `CCCCC[P+](CC)(CC)CC.O=S(=O)([N-]S(=O)(=O)C(F)(F)F)C(F)(F)F` ?
Outgoing: 0.286

Incoming: Quick one: electrical conductivity for `CCCC[N+]1(C)CCCC1.O=S(=O)([N-]S(=O)(=O)C(F)(F)F)C(F)(F)F` ?
Outgoing: 0.52

====

settings: 348.15 K; 100 kPa; Liquid; Vibrating tube method
observable: mass density (kg/m3)
Record the value in kg/m3, omitting the unit from your answer.

Incoming: Quick one: mass density for `CCCC[N+]1(C)CCCCC1.O=S(=O)([N-]S(=O)(=O)C(F)(F)F)C(F)(F)F` ?
Outgoing: 1339

Incoming: Quick one: mass density for `CCCCC[P+](CC)(CC)CC.O=S(=O)([N-]S(=O)(=O)C(F)(F)F)C(F)(F)F` ?
Outgoing: 1262

Incoming: Quick one: mass density for `CC[P+](CC)(CC)CCOC.O=S(=O)([N-]S(=O)(=O)C(F)(F)F)C(F)(F)F` ?
Outgoing: 1333

Incoming: Quick one: mass density for `CCCC[N+]1(C)CCCC1.O=S(=O)([N-]S(=O)(=O)C(F)(F)F)C(F)(F)F` ?
Outgoing: 1351
